relative luminescence intensity (CDK6 = 100%) values, listed per item
assayed.target: CDK4/cyclin D3 (UniProt P11802 1-303; P30281 1-292)
Sequence (P11802 whole entry, chain 1 of 2): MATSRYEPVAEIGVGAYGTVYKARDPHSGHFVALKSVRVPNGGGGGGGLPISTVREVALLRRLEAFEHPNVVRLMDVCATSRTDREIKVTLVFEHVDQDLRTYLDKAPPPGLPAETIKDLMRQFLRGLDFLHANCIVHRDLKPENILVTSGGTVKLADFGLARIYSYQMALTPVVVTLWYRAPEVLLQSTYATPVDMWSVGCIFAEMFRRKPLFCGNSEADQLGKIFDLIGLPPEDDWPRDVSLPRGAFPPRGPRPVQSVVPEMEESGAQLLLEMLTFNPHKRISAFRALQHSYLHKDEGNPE
Sequence (P30281 whole entry, chain 2 of 2): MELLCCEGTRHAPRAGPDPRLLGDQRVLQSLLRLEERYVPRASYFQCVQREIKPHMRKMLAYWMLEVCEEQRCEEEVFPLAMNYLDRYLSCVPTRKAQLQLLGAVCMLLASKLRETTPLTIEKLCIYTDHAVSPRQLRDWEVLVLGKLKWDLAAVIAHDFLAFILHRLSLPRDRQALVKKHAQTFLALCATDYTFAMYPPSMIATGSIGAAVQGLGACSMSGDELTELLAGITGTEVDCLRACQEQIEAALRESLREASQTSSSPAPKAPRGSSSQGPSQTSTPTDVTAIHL
experiment: cell-based or functional assay
No end group written: not given here. *: point of attachment. aminohexane = linker joining biotin to the N-terminal residue; Biotin = O=C1N[C@H]2[C@H](CS[C@H]2CCCCC(=O)*)N1
Numeric answer only, unit % assumed.

Input: Any idea what relative luminescence intensity (CDK6 = 100%) was measured for {Biotin-aminohexane}-LVEMTGLSPRDIRVD [Polypeptide 26] ?
Output: 18

Input: {Biotin-aminohexane}-LVEMTGLSPRVIRVW [Comparative Polypeptide 7] ?
Output: 55

Input: {Biotin-aminohexane}-GGGRAAPLSPDPHIPD [Polypeptide 24] ?
Output: 54

Note: attention shifts to another entry.
Input: Any idea what relative luminescence intensity (CDK6 = 100%) was measured for {Biotin-aminohexane}-GGGRAAPLSPIDHIPD [Polypeptide 25] ?
Output: 40
